target.system: T1, secretory phospholipase A2 (sPLA2) (Homo sapiens, UniProt P14555 P14555:21-144)
T1 sequence: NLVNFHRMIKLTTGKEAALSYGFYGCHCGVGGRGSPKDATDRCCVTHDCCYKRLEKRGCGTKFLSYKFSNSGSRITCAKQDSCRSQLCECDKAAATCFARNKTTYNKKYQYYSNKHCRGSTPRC
protocol.description: filter; biphasic, Kd2 180 nM, mole fraction 0.45; TBSC, 37 C
applied.conditions: tags: supplied by Eli Lilly

{"binder": "2 (ssRNA) RNA: GGGAGCUCAGAAUAAACGCUCAAUCUCAUUGCUCGUCGCACGGCGUAACCUAUUUCGACAUGAGGCCCGGAUCCGGC", "output.unit": "nM", "Kd": 1.7}

Taken from patent US5622828.
